Below, each of the compounds is paired with its reported Ki value.
Target: glycoprotein IIb/IIIa localised on blood platelets (fibrinogen receptor) (Homo sapiens, UniProt P05106+P08514)
Construct: carried out on filtered, plasma-free human platelets; endogenous in cells
Sequence (P08514 32-887 limits assumed): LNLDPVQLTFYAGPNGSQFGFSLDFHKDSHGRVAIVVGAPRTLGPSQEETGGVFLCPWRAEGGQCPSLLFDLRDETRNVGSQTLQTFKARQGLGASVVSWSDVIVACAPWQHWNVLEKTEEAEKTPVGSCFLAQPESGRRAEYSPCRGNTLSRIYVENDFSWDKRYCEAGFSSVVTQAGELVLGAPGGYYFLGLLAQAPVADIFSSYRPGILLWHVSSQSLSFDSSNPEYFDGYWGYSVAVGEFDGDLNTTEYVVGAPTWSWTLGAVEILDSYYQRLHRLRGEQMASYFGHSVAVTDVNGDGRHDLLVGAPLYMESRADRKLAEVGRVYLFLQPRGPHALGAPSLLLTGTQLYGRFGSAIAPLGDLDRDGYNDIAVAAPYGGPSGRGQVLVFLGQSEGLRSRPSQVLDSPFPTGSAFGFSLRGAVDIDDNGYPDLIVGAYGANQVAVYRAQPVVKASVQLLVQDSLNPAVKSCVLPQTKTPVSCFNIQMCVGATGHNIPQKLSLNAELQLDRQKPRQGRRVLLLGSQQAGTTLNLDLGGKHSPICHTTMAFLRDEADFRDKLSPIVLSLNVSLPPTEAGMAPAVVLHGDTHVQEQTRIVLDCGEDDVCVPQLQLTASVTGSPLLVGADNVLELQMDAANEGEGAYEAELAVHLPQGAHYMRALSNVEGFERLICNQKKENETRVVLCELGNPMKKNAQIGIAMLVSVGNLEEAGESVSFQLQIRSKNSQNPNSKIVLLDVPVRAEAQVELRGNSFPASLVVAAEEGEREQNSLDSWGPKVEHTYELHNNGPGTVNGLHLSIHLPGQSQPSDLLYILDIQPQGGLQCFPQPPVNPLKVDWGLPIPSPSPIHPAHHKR
Sequence (P05106 27-788): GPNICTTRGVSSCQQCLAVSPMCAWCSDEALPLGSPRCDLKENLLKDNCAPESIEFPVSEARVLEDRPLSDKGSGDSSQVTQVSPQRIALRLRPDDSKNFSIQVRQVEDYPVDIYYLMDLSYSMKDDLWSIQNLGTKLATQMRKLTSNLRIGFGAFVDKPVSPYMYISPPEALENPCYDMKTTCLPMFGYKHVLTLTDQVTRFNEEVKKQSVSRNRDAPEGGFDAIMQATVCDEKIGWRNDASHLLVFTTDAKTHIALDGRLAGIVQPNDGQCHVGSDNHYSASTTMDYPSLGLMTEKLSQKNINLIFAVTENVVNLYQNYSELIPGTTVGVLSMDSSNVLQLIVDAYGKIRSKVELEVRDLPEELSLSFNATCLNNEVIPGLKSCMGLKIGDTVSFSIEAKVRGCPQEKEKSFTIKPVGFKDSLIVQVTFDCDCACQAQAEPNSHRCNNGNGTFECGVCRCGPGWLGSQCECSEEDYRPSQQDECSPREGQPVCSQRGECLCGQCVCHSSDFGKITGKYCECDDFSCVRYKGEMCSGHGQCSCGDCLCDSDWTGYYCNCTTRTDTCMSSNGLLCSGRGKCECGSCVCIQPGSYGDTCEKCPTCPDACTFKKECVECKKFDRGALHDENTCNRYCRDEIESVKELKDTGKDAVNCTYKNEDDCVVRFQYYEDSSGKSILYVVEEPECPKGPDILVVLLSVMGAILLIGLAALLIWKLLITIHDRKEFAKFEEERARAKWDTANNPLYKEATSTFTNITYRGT
Assay: inhibition of binding of ^125 I-fibrinogen to human platelets after stimulation with ADP
Conditions: after stimulation with ADP (10 μM)

{"columns": ["test smiles", "unit text", "Ki"],
 "data": [
  ["CN(CC(=O)N[C@@H](CC(=O)O)C(=O)NC(c1ccccc1)c1ccccc1)C(=O)[C@H]1CC[C@H](CNC(=N)N)CC1", "µM", 3.1],
  ["CN(CC(=O)N[C@@H](CC(=O)O)C(=O)NCCC(c1ccccc1)c1ccccc1)C(=O)c1ccc(CNC(=N)N)cc1", "µM", 1.8],
  ["CC(C)NC(=O)[C@H](CC(=O)O)NC(=O)c1ccc(CC2CCN(C(=N)N)CC2)cc1", "µM", 10],
  ["CC(C)[C@H](NC(=O)[C@H](CC(=O)O)NC(=O)c1ccc(OC2CCN(C(=N)N)CC2)cc1)C(=O)O", "µM", 0.8]
]}

* * *

Below, each of the compounds is paired with its reported pIC50 value.
Tested on: filtered, plasma-free human platelets
Experiment: inhibition of aggregation of filtered human platelets after ADP or thrombin stimulation
Assay type: cell-based
Conditions: Platelet, ADP stimulation, read-out: Inhibition of platelet aggregation ADP, IC50 value of inhibition
pIC50: −log10 of the molar value.
endpoint label: pIC50

{"columns": ["compound", "endpoint label", "measured value"],
 "data": [
  ["CC(C)NC(=O)[C@H](CC(=O)O)NC(=O)c1ccc(CC2CCN(C(=N)N)CC2)cc1 [Example 4]", "pIC50", 4.70],
  ["N=C(N)N1CCC(Cc2ccc(C(=O)N[C@@H](CC(=O)O)C(=O)NC3CCCCC3)cc2)CC1 [Example 2]", "pIC50", 4.82],
  ["CC(C)[C@H](NC(=O)[C@H](CC(=O)O)NC(=O)c1ccc(CC2CCN(C(=N)N)CC2)cc1)C(=O)O [Example 1]", "pIC50", 5.10],
  ["CC(C)[C@H](NC(=O)[C@H](CC(=O)O)NC(=O)c1ccc(OC2CCN(C(=N)N)CC2)cc1)C(=O)O [Example 14]", "pIC50", 5.35],
  ["N=C(N)N1CCC(Cc2ccc(C(=O)N[C@@H](CC(=O)O)C(=O)NCCC(c3ccccc3)c3ccccc3)cc2)CC1 [Example 3]", "pIC50", 4.82],
  ["CN(CC(=O)N[C@@H](CC(=O)O)C(=O)NCCC(c1ccccc1)c1ccccc1)C(=O)c1ccc(CNC(=N)N)cc1 [Example 9]", "pIC50", 5.70],
  ["CN(CC(=O)N[C@@H](CC(=O)O)C(=O)NC(c1ccccc1)c1ccccc1)C(=O)[C@H]1CC[C@H](CNC(=N)N)CC1 [Example 12]", "pIC50", 5.10]
]}

The origin of these recorded values is patent US5399570A.
